Reference source: patent US20050009840A1

- target.or.system: Met kinase domain (GST fusion protein) (Homo sapiens, UniProt P08581)
- Construct: Purified GST fusion protein containing the Met kinase domain
- Sequence (P08581 1078-1345 limits assumed): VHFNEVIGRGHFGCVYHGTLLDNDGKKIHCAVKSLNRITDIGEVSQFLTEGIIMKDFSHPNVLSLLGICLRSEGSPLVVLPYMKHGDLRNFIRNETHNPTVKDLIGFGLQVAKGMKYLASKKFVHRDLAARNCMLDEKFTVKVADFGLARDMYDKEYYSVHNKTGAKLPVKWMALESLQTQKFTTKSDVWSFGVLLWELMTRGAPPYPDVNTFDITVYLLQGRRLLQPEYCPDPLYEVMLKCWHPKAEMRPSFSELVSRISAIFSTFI
- test.name: Met transphosphorylation assay (ELISA, poly(glu-tyr) substrate)
- Assay type: biochemical
- recorded.conditions: Met IC50
readout: IC50 (µM)
Return type: number; implicit unit µM.

Inquiry: Could you tell me which IC50 is on file for `N#Cc1ccccc1COc1cc(-c2ccccc2)cnc1N` ?
Reply text: 12.2

* * *

Please respond with reported pIC50 for every item in the list.
- target.or.system: Met kinase domain (GST fusion protein) (Homo sapiens)
- Construct: Purified GST fusion protein containing the Met kinase domain
- test.name: Met transphosphorylation assay (ELISA, poly(glu-tyr) substrate);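 further: Cell-free ELISA with plate-bound poly(Glu:Tyr 4:1) phosphorylated by GST-fused Met kinase domain plus ATP and Mn2+, phosphotyrosine detected by anti-phosphotyrosine antibody with HRP and ABTS read-out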
- Type: biochemical
- recorded.conditions: Table 2; read-out: Met IC50
// pIC50: -log10(molar conc.)

Inquiry: # returns recorded pIC50 (system: Met kinase domain (GST fusion protein) (Homo sapiens)) for CC(Oc1cc(-c2ccc(NS(=O)(=O)CCN(C)C)cc2)cnc1N)c1c(F)ccc(F)c1Cl (stereo not drawn) [Example I-288]
Reply text: 6.82

Inquiry: Lookup: pIC50 / Met kinase domain (GST fusion protein) (Homo sapiens) / CN1CCN(C(=O)c2cccc(-c3cnc(N)c(OCc4c(F)ccc(F)c4Cl)c3)c2)CC1 [Example I-226]
Reply text: 7.17

Inquiry: # query: pIC50 | item CN(C)[C@H]1CCN(C(=O)c2ccc(-c3cnc(N)c(OCc4ccc(F)cc4Cl)c3)cc2)C1 [Example I-205] | system: Met kinase domain (GST fusion protein) (Homo sapiens)
Reply text: 4.21

Inquiry: Recall the recorded pIC50 for CC(Oc1cc(-c2cccc(C(=O)N3CC[C@@H](N)C3)c2)cnc1N)c1c(F)ccc(F)c1Cl (stereo partly drawn) [Example I-344] with Met kinase domain (GST fusion protein) (Homo sapiens) and state it.
Reply text: 6.92

Inquiry: Which measured pIC50 belongs to CC(=O)N1CCN(CCNC(=O)c2cccc(-c3cnc(N)c(OC(C)c4c(Cl)ccc(F)c4Cl)c3)c2)CC1 (stereo not drawn) [Example I-315] , tested on Met kinase domain (GST fusion protein) (Homo sapiens)?
Reply text: 7.16

Inquiry: Please tell me: pIC50 of Nc1ncc(-c2ccc(NS(=O)(=O)CCN3CC[C@@H](O)C3)cc2)cc1OCc1c(F)ccc(F)c1Cl [Example I-252] , system Met kinase domain (GST fusion protein) (Homo sapiens)?
Reply text: 6.90

Inquiry: Which measured pIC50 belongs to Nc1ncc(-c2ccc(C(=O)N3CCC(N)CC3)cc2)cc1OCc1c(F)ccc(F)c1Cl [Example I-214] , tested on Met kinase domain (GST fusion protein) (Homo sapiens)?
Reply text: 7.00

Inquiry: Request - read-out pIC50 | tested on Met kinase domain (GST fusion protein) (Homo sapiens) | molecule Nc1ncc(-c2ccc(C(=O)NCCCN3CCOCC3)cc2)cc1OCc1c(F)ccc(F)c1Cl [Example I-224]
Reply text: 6.55

Inquiry: # value lookup — system Met kinase domain (GST fusion protein) (Homo sapiens), readout pIC50, item CC(C)(C)c1ccc(COc2cc(-c3ccc(C(=O)NCCN4CCOCC4)cc3)cnc2N)cc1 [Example I-200]
Reply text: 5.16

Inquiry: Query for Met kinase domain (GST fusion protein) (Homo sapiens): what pIC50 does the record show for Nc1ncc(-c2cccc(NS(=O)(=O)CCN3CCN(C(=O)CO)CC3)c2)cc1OCc1c(F)ccc(F)c1Cl [Example I-263] ?
Reply text: 5.94

Inquiry: Lab note: need pIC50 with Met kinase domain (GST fusion protein) (Homo sapiens) for entry Nc1ncc(-c2ccc(N3CCCS3(=O)=O)cc2)cc1OCc1c(F)cccc1C(F)(F)F [Example I-242] , please look it up.
Reply text: 6.85

Inquiry: State its pIC50 on Met kinase domain (GST fusion protein) (Homo sapiens): CN(C)CCS(=O)(=O)Nc1cccc(-c2cnc(N)c(OCc3c(F)ccc(F)c3Cl)c2)c1 [Example I-259]
Reply text: 6.30

Inquiry: // lookup pIC50 | system=Met kinase domain (GST fusion protein) (Homo sapiens) | key= CC(Oc1cc(-c2ccc(NS(=O)(=O)CCN3CCC(O)CC3)cc2)cnc1N)c1c(F)ccc(F)c1Cl (stereo not drawn) [Example I-287]
Reply text: 6.85

Inquiry: Record CC(Oc1cc(-c2cccc(C(=O)NCCN3CCCC3)c2)cnc1N)c1c(F)ccc(F)c1Cl (stereo not drawn) [Example I-348] : what is its pIC50 with Met kinase domain (GST fusion protein) (Homo sapiens)?
Reply text: 6.70

Inquiry: Give Met kinase domain (GST fusion protein) (Homo sapiens) pIC50 for CC(Oc1cc(-c2cccc(C(=O)N3CC[C@H](N)C3)c2)cnc1N)c1c(Cl)ccc(F)c1Cl (stereo partly drawn) [Example I-316]
Reply text: 7.32
